Sourced from paper PMC4755333

System: cancer cell lines
Assay type: cell-based
Settings: read-out: activity/potency range across cancer cell lines
Field: IC50. Provide a value for each of the compounds that follow.

Example compounds with recorded IC50:
[
  {
    "compound": "COc1cc(C(=O)c2csc(Nc3ccccc3)n2)cc(OC)c1OC [Compound 45a]",
    "IC50": "35 to 65 nM"
  },
  {
    "compound": "COc1cc(/C(=N\\C#N)c2csc(-c3ccccc3)n2)cc(OC)c1OC",
    "IC50": "20 to 60 nM"
  },
  {
    "compound": "COc1cc(C(=O)c2csc(Nc3ccc(F)cc3)n2)cc(OC)c1OC [Compound 45c]",
    "IC50": "35 to 65 nM"
  }
]

Here is the next item to consider.
Ask | Lab note: need IC50 for COc1cc(C(=O)c2csc(Nc3ccc(C)cc3)n2)cc(OC)c1OC.Cl [Compound 46b] on cancer cell lines, anyone have it?
Reply | 35 to 65 nM
